- System: elastase
- PROCEDURE DETAILS: Inhibition of elastase
- Format: biochemical
- TEST SETTINGS: 50 μg/ml, 10 nM elastase, 25° C., 10 min
READOUT NAME: Inhibition of Elastase (%)
One number for each entry, in %.

For orientation, consider the following solved cases.
| MOLECULE | Inhibition of Elastase (%) |
| --- | --- |
| Oc1cc(O)cc(Oc2c(O)cc(O)c3c2Oc2c(O)cc(O)c(-c4c(O)cc(O)c5c4Oc4c(O)cc(Oc6c(O)cc(O)cc6O)c(Oc6cc(O)cc(O)c6)c4O5)c2O3)c1 | 88.1 |
| Oc1cc(O)cc(Oc2c(O)cc(O)c3c2Oc2c(cc(O)c(-c4c(O)cc5c(c4O)Oc4c(Oc6cc(O)cc(O)c6)c(O)cc(O)c4O5)c2O)O3)c1 | 89.9 |
| Oc1cc(O)cc(Oc2c(O)cc(O)c3c2Oc2c(O)cc4oc5c(Oc6cc(O)cc(O)c6)c(O)cc(O)c5c4c2O3)c1 | 85.4 |

Give Inhibition of Elastase (%) for each of the items listed below.
1. Oc1cc(O)cc(Oc2c(O)cc(O)c3c2Oc2c(O)cc(O)cc2O3)c1
2. O=c1c(-c2ccccc2)coc2ccccc12 [isoflavone, reference compound]
3. Oc1cc(O)cc(Oc2c(O)cc(O)c3c2Oc2c(O)cc(Oc4c(O)cc(Oc5c(O)cc(O)c6c5Oc5c(O)cc(O)cc5O6)cc4O)cc2O3)c1
4. Oc1cc(O)cc(Oc2c(O)cc(O)c3c2Oc2c(O)cc4oc5cc(O)cc(O)c5c4c2O3)c1

Output:
87.4
38.3
86.4
88.7

* * *

- Test system: NB1RGB cells (normal human fibroblast cell line from skin)
- TEST SETTINGS: concentration that reaches 50% of apoptosis, 1 hour incubation
- Method: The cytotoxicity of the compositions to the normal skin cell was assessed using the NHEK (F) cells (normal human epidermal keratinocytes of neonatal foreskin cell) and the NB1RGB cells (normal human fibroblast cell line from skin). […] A0=absorbance of the cell that was not treated with the composition A=absorbance of the cell that was treated with the composition […] As=absorbance of the cell that was treated with 1% (w/v) SDS (positive control group)
READOUT NAME: LD50 (μM) NB1RGB cell

For orientation, consider the following solved cases.
| INPUT SMILES | LD50 (μM) NB1RGB cell |
| --- | --- |
| Oc1cc(O)cc(Oc2c(O)cc(O)c3c2Oc2c(O)cc(O)cc2O3)c1 | 110.4 µM |
| Oc1cc(O)cc(Oc2c(O)cc(O)c3c2Oc2c(O)cc4oc5cc(O)cc(O)c5c4c2O3)c1 | 100.4 µM |
| Oc1cc(O)cc(Oc2c(Oc3c(O)cc(O)cc3O)cc(O)c3c2Oc2c(O)cc(O)cc2O3)c1 | 114.3 µM |

Give LD50 (μM) NB1RGB cell for each of the items listed below.
1. Oc1cc(O)cc(Oc2c(O)cc(O)c3c2Oc2c(cc(O)c(-c4c(O)cc5c(c4O)Oc4c(Oc6cc(O)cc(O)c6)c(O)cc(O)c4O5)c2O)O3)c1
2. Oc1cc(O)cc(Oc2c(O)cc(O)c3c2Oc2c(O)cc(Oc4c(O)cc(Oc5c(O)cc(O)c6c5Oc5c(O)cc(O)cc5O6)cc4O)cc2O3)c1
3. Oc1cc(O)cc(Oc2cc(O)c3c(c2)Oc2c(O)cc(O)c(Oc4cc(O)cc(O)c4)c2O3)c1

Output:
1: 97.3 µM; 2: 150.3 µM; 3: 104.8 µM
